test target: T1, mouse matriptase-2 ECD protein his tag (mouse, UniProt Q9DBI0 80-811)
T1 construct: aa 80-811 of Q9DBI0 with C-terminal linker and His tag; also called mouse MTP-2 ECD; moMTP-2
T1 sequence: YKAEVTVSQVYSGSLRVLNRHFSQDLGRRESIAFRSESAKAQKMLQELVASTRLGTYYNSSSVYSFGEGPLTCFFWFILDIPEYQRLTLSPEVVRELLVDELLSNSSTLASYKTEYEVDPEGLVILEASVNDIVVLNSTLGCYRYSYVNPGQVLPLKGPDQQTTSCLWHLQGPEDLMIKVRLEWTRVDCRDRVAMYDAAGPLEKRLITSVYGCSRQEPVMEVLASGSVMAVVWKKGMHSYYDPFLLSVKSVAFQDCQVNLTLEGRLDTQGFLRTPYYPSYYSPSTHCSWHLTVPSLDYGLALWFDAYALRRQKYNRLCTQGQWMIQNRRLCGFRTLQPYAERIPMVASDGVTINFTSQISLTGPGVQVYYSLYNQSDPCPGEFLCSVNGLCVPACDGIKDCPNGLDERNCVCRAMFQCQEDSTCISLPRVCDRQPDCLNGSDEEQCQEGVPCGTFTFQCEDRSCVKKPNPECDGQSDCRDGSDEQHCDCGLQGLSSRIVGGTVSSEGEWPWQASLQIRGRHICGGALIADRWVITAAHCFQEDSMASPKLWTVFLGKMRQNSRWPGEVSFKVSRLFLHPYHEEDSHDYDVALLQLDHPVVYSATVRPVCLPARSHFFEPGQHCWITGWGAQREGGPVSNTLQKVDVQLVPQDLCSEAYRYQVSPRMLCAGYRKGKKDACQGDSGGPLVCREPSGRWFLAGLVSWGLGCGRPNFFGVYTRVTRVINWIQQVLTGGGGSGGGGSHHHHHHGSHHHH
method summary: SPR (Biacore 8K), huIgG4PE captured on anti-human Fc, MTP-2 ECD as analyte, 1:1 fit
Method: Off-rate screening was performed by surface plasmon resonance (SPR), using a Biacore 8K system (GE Healthcare). Anti-human Fc mix (˜1000 RU) were immobilised in both active and reference channels in HBS-P+ buffer (GE BR100671) pH 7.4. […] MTP-2 ECD protein analytes were then injected (at 100, 25, 6.25, 1.56 and 0 nM concentrations) for 120 sec (association time) at 30 μl/min and dissociation monitored for 600 sec. […]
metric name: Stoichiometry

{"columns": ["binder", "value"],
 "data": [
  ["NORI-013 (antibody, human IgG4 S228P, lambda, V domains shown, human IgG4PE, lambda) VH: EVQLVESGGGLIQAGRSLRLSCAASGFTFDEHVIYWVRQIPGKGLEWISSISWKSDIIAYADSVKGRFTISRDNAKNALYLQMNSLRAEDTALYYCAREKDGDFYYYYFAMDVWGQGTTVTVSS VL: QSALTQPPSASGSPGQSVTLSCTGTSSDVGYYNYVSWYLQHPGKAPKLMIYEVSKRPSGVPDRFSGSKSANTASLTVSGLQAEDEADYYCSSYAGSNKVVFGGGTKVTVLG", 1.47]
]}
